Cited source: patent US6720346B2

Here the recorded CDK2 % Inhibition at 0.03 μM is given for each entry.
# testTarget: CDK2/cyclin A (Homo sapiens)
# Construct: made in house; host or cells: CDK2: insect cells (baculovirus); cyclin A: E. coli
# assayRemarks: Inhibition of CDK2/cyclin A retinoblastoma kinase activity (Ki; % inhibition)
# Assay type: biochemical
# measurementContext: 0.03 μM compound
Give your result in % as a bare value.

smilesText: CSc1ccc(NC(=O)c2ccc(Nc3nc(N)c(C(=O)c4c(F)cccc4F)s3)cc2)cc1
CDK2 % Inhibition at 0.03 μM [%]: −25
--
smilesText: Nc1nc(Nc2ccc(C(=O)N3CCN(c4ccncc4)CC3)cc2)sc1C(=O)c1c(F)cccc1F
CDK2 % Inhibition at 0.03 μM [%]: −1
--
smilesText: C[C@@H](CNC(=O)c1ccc(Nc2nc(N)c(C(=O)c3c(F)cccc3F)s2)cc1)c1ccccc1
CDK2 % Inhibition at 0.03 μM [%]: 10
--
smilesText: Nc1nc(Nc2ccc(C(=O)Nc3ccc(Cl)cc3)cc2)sc1C(=O)c1c(F)cccc1F
CDK2 % Inhibition at 0.03 μM [%]: −10
--
smilesText: Cc1ccccc1CNC(=O)c1ccc(Nc2nc(N)c(C(=O)c3c(F)cccc3F)s2)cc1
CDK2 % Inhibition at 0.03 μM [%]: 35

## Task # get_value(readout='CDK2 % Inhibition at 0.03 μM', item= "Nc1nc(Nc2ccc(C(=O)N3CCC(O)(c4ccccc4)CC3)cc2)sc1C(=O)c1c(F)cccc1F" )
## Result 5

## Task # get_value(readout='CDK2 % Inhibition at 0.03 μM', item= "Nc1nc(Nc2ccc(C(=O)Nc3ccon3)cc2)sc1C(=O)c1c(F)cccc1F" )
## Result −1

## Task # get_value(readout='CDK2 % Inhibition at 0.03 μM', item= "COC(=O)c1ccc(NC(=O)c2ccc(Nc3nc(N)c(C(=O)c4c(F)cccc4F)s3)cc2)cc1OC" )
## Result 10

* * *

# testTarget: human CDK4/cyclin D3 (Homo sapiens)
# Construct: made in house; host or cells: insect cells co-infected with baculovirus vectors
# assayRemarks: Inhibition of CDK4/cyclin D retinoblastoma kinase activity (Ki; % inhibition)
# Assay type: biochemical
# measurementContext: at 0.03 μM
Outcome label depends on CDK4 % Inhibition at 0.03 μM relative to 20%: at/above gives YES, below gives NO.

Worked cases, answers included:
compound: CC(C)OCCCNC(=O)c1ccc(Nc2nc(N)c(C(=O)c3c(F)cccc3F)s2)cc1
testTarget: human CDK4/cyclin D3 (Homo sapiens)
classAssignment: YES
//
compound: CCN(CC)CCNC(=O)c1ccc(Nc2nc(N)c(C(=O)c3c(F)cccc3F)s2)cc1
testTarget: human CDK4/cyclin D3 (Homo sapiens)
classAssignment: YES
//
compound: Nc1nc(Nc2ccc(C(=O)N3CCN(CCCO)CC3)cc2)sc1C(=O)c1c(F)cccc1F
testTarget: human CDK4/cyclin D3 (Homo sapiens)
classAssignment: NO

## Task Is CDK4 % Inhibition at 0.03 μM at least 20%? Consider "COc1cccc(CCNC(=O)c2ccc(Nc3nc(N)c(C(=O)c4c(F)cccc4F)s3)cc2)c1"
## Result YES

## Task Is CDK4 % Inhibition at 0.03 μM at least 20%? Consider "Nc1nc(Nc2ccc(C(=O)Nc3cccc4cnccc34)cc2)sc1C(=O)c1c(F)cccc1F"
## Result NO

## Task Is CDK4 % Inhibition at 0.03 μM at least 20%? Consider "Nc1nc(Nc2ccc(C(=O)NCCc3ccc(Cl)cc3Cl)cc2)sc1C(=O)c1c(F)cccc1F"
## Result NO

## Task Is CDK4 % Inhibition at 0.03 μM at least 20%? Consider "CC(C)c1ccccc1NC(=O)c1ccc(Nc2nc(N)c(C(=O)c3c(F)cccc3F)s2)cc1"
## Result NO

## Task Is CDK4 % Inhibition at 0.03 μM at least 20%? Consider CC(C)C(C)NC(=O)c1ccc(Nc2nc(N)c(C(=O)c3c(F)cccc3F)s2)cc1 (centres unmarked)
## Result NO

## Task Is CDK4 % Inhibition at 0.03 μM at least 20%? Consider "CN(C)CCCCCCNC(=O)c1ccc(Nc2nc(N)c(C(=O)c3c(F)cccc3F)s2)cc1"
## Result YES

* * *

# testTarget: human CDK4/cyclin D3 (Homo sapiens, UniProt P11802)
# Construct: made in house; host or cells: insect cells co-infected with baculovirus vectors
# Sequence (P11802 whole entry): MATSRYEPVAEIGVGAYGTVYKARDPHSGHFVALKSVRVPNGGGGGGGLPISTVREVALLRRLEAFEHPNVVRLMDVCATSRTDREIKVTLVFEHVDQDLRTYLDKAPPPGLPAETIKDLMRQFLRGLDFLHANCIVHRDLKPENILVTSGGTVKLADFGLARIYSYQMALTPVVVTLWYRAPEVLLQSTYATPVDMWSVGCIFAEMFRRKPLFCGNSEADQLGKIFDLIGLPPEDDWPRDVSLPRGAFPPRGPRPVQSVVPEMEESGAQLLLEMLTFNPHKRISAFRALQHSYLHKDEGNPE
# Sequence (P30281 1-264 partner limits assumed): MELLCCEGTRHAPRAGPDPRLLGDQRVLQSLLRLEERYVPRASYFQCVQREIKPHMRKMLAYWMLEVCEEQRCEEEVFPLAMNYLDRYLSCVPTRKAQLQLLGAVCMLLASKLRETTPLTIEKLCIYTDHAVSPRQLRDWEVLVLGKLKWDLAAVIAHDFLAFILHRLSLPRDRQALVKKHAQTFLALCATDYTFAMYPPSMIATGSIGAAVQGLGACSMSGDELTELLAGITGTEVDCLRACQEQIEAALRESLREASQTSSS
# assayRemarks: Inhibition of CDK4/cyclin D retinoblastoma kinase activity (Ki; % inhibition)
# Assay type: biochemical
# measurementContext: at 0.03 μM
parameter: CDK4 % Inhibition at 0.03 μM (%)
Give your result in % as a bare value.

Examples from the recorded data:
smilesText: CN(C)CCCNC(=O)c1ccc(Nc2nc(N)c(C(=O)c3c(F)cccc3F)s2)cc1
experimentalValue: 31
--
smilesText: Nc1nc(Nc2ccc(C(=O)Nc3cccc4ncccc34)cc2)sc1C(=O)c1c(F)cccc1F
experimentalValue: 12
--
smilesText: CC(=O)NCCNC(=O)c1ccc(Nc2nc(N)c(C(=O)c3c(F)cccc3F)s2)cc1
experimentalValue: 20

## Task # get_value(readout='CDK4 % Inhibition at 0.03 μM', item= "COc1ccc(NC(=O)c2ccc(Nc3nc(N)c(C(=O)c4c(F)cccc4F)s3)cc2)cc1" )
## Result 9

* * *

# testTarget: human CDK4/cyclin D3 (Homo sapiens, UniProt P11802)
# Construct: made in house; host or cells: insect cells co-infected with baculovirus vectors
# assayRemarks: Inhibition of CDK4/cyclin D retinoblastoma kinase activity (Ki; % inhibition)
# Format: biochemical
# measurementContext: 0.03 μM compound
parameter: CDK4 % Inhibition at 0.03 μM (%)
Give your result in % as a bare value.

smilesText: Nc1nc(Nc2ccc(C(=O)NCc3ccco3)cc2)sc1C(=O)c1c(F)cccc1F
unitSymbol: %
CDK4 % Inhibition at 0.03 μM: 40

smilesText: Nc1nc(Nc2ccc(C(=O)Nc3ccc(C(F)(F)F)cc3)cc2)sc1C(=O)c1c(F)cccc1F
unitSymbol: %
CDK4 % Inhibition at 0.03 μM: −3

// moving on: another record for CDK4 % Inhibition at 0.03 μM
## Task # get_value(readout='CDK4 % Inhibition at 0.03 μM', item= "COc1cccc(CNC(=O)c2ccc(Nc3nc(N)c(C(=O)c4c(F)cccc4F)s3)cc2)c1" )
## Result 35

* * *

Here the recorded HCT-116 % Inhibition at 0.25 μM is given for each entry.
# System: HCT-116 cell line
# assayRemarks: Inhibition of cell growth, MTT tetrazolium salt assay
# Format: cell-based
# measurementContext: HCT-116 cells, 0.25 μM compound
Please answer using a numeric value trailed by its unit.

Examples from the recorded data:
compound: CCOc1ccccc1CCNC(=O)c1ccc(Nc2nc(N)c(C(=O)c3c(F)cccc3F)s2)cc1 [Example G380]
HCT-116 % Inhibition at 0.25 μM: 50%
--
compound: Nc1nc(Nc2ccc(C(=O)Nc3ccon3)cc2)sc1C(=O)c1c(F)cccc1F [Example G213]
HCT-116 % Inhibition at 0.25 μM: 49%
--
compound: Nc1nc(Nc2ccc(C(=O)Nc3ccc(Cl)cc3)cc2)sc1C(=O)c1c(F)cccc1F [Example G288]
HCT-116 % Inhibition at 0.25 μM: 60%

// moving on: another record for HCT-116 % Inhibition at 0.25 μM
## Task # get_value(readout='HCT-116 % Inhibition at 0.25 μM', item= CC(O)c1cccc(NC(=O)c2ccc(Nc3nc(N)c(C(=O)c4c(F)cccc4F)s3)cc2)c1 (stereo not shown) [Example G222] )
## Result 61%

* * *

# Test system: HCT-116 cell line
# assayRemarks: Inhibition of cell growth, MTT tetrazolium salt assay
# Assay type: cell-based
# measurementContext: HCT-116 cells, 0.25 μM compound
parameter: HCT-116 % Inhibition at 0.25 μM (%)
Give your result in % as a bare value.

compound: CN(CCCNC(=O)c1ccc(Nc2nc(N)c(C(=O)c3c(F)cccc3F)s2)cc1)c1ccccc1 [Example G363]
experimentalValue: 63
//
compound: CC(C)CCNC(=O)c1ccc(Nc2nc(N)c(C(=O)c3c(F)cccc3F)s2)cc1 [Example G247]
experimentalValue: 54
//
compound: Nc1nc(Nc2ccc(C(=O)NCCc3ccc(F)cc3)cc2)sc1C(=O)c1c(F)cccc1F [Example G355]
experimentalValue: 54

## Task # get_value(readout='HCT-116 % Inhibition at 0.25 μM', item= COc1ccc(OC)c(CCNC(=O)c2ccc(Nc3nc(N)c(C(=O)c4c(F)cccc4F)s3)cc2)c1 [Example G319] )
## Result 54

## Task # get_value(readout='HCT-116 % Inhibition at 0.25 μM', item= C[C@@H](CNC(=O)c1ccc(Nc2nc(N)c(C(=O)c3c(F)cccc3F)s2)cc1)c1ccccc1 [Example G375] )
## Result 62

## Task # get_value(readout='HCT-116 % Inhibition at 0.25 μM', item= Nc1nc(Nc2ccc(C(=O)Nc3cccc(OC(F)(F)F)c3)cc2)sc1C(=O)c1c(F)cccc1F [Example G292] )
## Result 60
